- Tested on: SF-539 CNS
- Assay Explanation: NCI-60 one-dose screen, 48 h (100 = growth as untreated, 0 = no growth, -100 = all killed)
- Setup Conditions: 10 µM unless noted
The panel holds about 83,000 compounds, 20% with a hit somewhere; the sample as a whole holds those more often.
I'd appreciate it if you marked entries criterion met when growth is lower than 60% and criterion not met when it is not.

Strictly below 60% in growth? `C#Cc1nc(C(=O)NCCC(=O)Nc2ccc(NC(=O)c3ccc(/C=C/C(=O)c4nccn4C)cc3)cc2)cs1`
criterion met

Is growth of `ClC(Cl)c1nc(-c2ccco2)n2nc(-c3ccccc3)cc2n1` strictly below 60%?
criterion met

Quick check: growth of `CN(C)C(=O)c1cc(-c2ccc3ncnc(NCc4ccccc4)c3c2)cnc1N` under 60%?
criterion not met

For this molecule, is growth lower than 60%? CCO/C=N/C1=C(C#N)C(c2ccc(Cl)cc2)c2sc3c(CC)cccc3c2O1 (stereo not given)
criterion met

Please let me know if `CS(=O)(=O)Nc1cc(-c2ccc3ncc(C#N)c(NCc4cccc(F)c4)c3c2)cnc1Cl` shows growth below 60%.
criterion met

Given the entry `NC(N)=Nc1ccc(Oc2cccc(Nc3ccc(Cl)cc3)c2)cn1` , would its reported growth be below 60%?
criterion not met

Hello, I'm reviewing records and need to know if growth of `CN1c2ccccc2Sc2cc(C=C(C#N)C#N)ccc21` is below 60%. Could you check?
criterion not met

Find out if reported growth for `COc1cc2oc(-c3cccc(C(=O)N[C@@H](CC(C)C)C(=O)OC(C)(C)C)c3)cc(=O)c2c(OC)c1OC` is less than 60%
criterion not met

growth strictly < 60% for this molecule? `O=S(=O)(NCCNc1nccc(-n2cnc3ccccc32)n1)c1ccc(C(F)(F)F)cc1`
criterion not met

# TODO verify growth < 60% strictly for this molecule: `COc1ccc([C@H]2[C@H](O)C(=O)N2c2cc(OC)c(OC)c(OC)c2)cc1F`
criterion met

* * *

- Test system: IGROV1 ovarian
- Assay Explanation: NCI-60 one-dose screen, 48 h
- Setup Conditions: 10 µM unless noted
About 83,000 compounds went through this panel and 20% of them were active in at least one assay; those are over-represented in the sample as a whole. Calls of active or inactive are those of the source. How the source made its calls: active means growth percent below 10; inactive means the rest.
Please reply with one of these outcomes: Y (active), N (inactive)

Kindly provide the recorded test outcome for the following molecule: `Cn1ccnc1C(=O)/C=C/c1ccc(CNC(=O)c2ccc(S(F)(F)(F)(F)F)cc2)cc1`
N

Called result for `CCCCCc1ccc(S(=O)(=O)Nc2cccc(-c3csc(NC(=O)CNCCN(C)C)n3)c2)cc1`
N

Could you check what this test reported for `CC1=N[C@@H]2CN(C(=O)OC(C)(C)C)C[C@@H]2n2c1cc1ccccc1c2=O` ?
N

Please state the recorded outcome for this molecule: `O=S(=O)(NCCCNc1nccc(-c2[nH]c(-c3ccccc3)nc2-c2ccc(Cl)c(O)c2)n1)c1cccc(F)c1`
N

Query: recorded result category for `CC(C)(C)c1ccc(CC(=O)Nc2sc3c(c2C(N)=O)CCC(=O)C3)cc1` in this test
Y

* * *

- System: SK-MEL-2 melanoma
- Assay Explanation: NCI-60 one-dose screen, 48 h
- Setup Conditions: 10 µM unless noted
The panel holds about 83,000 compounds, 20% with a hit somewhere; the sample as a whole holds those more often. Calls of active or inactive are those of the source. Rule for the calls: active = growth percent below 10; inactive = the rest.
Parameter call: string, one of class 1 (active), class 0 (inactive)

Dear colleague, could you share the recorded outcome for `C=CCn1c(SCC(=O)Nc2ccc(C(=O)/C=C/c3ccc(Br)cc3)cc2)nnc1-c1c[nH]c2ccccc12` when you have a moment?
class 0

Per the records of this test, what outcome belongs to `COc1ccc(C(=O)CSc2nc3c(c(Nc4ccc(S(N)(=O)=O)cc4)n2)CCCC3)cc1` ?
class 0

Test call for this compound, please: CC(Nc1c(C#N)cnc2ccc(-c3cnc(N)nc3)cc12)c1ccccc1 (centres undefined)
class 1

Called result for `CCN(CC)CCn1c2ccc(O)cc2c2sc3cc(OC)ccc3c(=O)c21`
class 0

Could you kindly confirm the outcome this assay logged for `O=C(Cn1cc(-c2ccccc2)nn1)Nc1nc(-c2ccc(Cl)cc2)cs1` ?
class 0

Record lookup: outcome of this test for `CCN1CCN(Cc2cn(-c3ccc(S(N)(=O)=O)cc3)nn2)CC1` ?
class 0

Short answer needed: outcome of this test for `COc1cc(-c2nnc(SCc3ccc(O)c4ncccc34)n2-c2ccccc2)cc(OC)c1OC` ?
class 0

Hi team, can someone confirm the assay call for `CC(=O)c1ccc(Nc2nc(SCC(C)C)nc(-c3ccccc3)c2C#N)cc1` ?
class 0

Give the logged outcome of this assay for the following compound: CCC(CC)N1C(=O)/C(=c2\sc3n(c2=O)NC2C(N=3)N(CC)C(=O)N2CC)c2ccccc21 (centres undefined)
class 0
